- Test system: transactivating tegument protein VP16 (Human herpesvirus 1), Gal4-VP16 luciferase reporter
- protocol summary: VP16 transactivation inhibitors, counter-screen for SRC3 inhibitor project, cell-based, luminescence, high throughput (AID 588794)
- test conditions: mammalian cells, VP16-driven luciferase reporter luminescence; at 3.6 µM; hits give high values
readout: inhibition (%)
The reply should be a number in %, with the unit left off.

Examples with their reported inhibition follow.
CN(C)c1ccc(C(=S)Nc2ccccc2)cc1 ... 13.3
O=C(NC(=S)Nc1ccc(N2CCN(C(=O)c3ccccc3)CC2)cc1)c1cccs1 ... 23.8
Cc1ccc(NCCN(C)C)c2c(=O)c3cc(O)ccc3sc12 ... 41.6
O=C(CN1C(=O)c2ccccc2S1(=O)=O)c1ccc(F)cc1 ... 17.6
Cc1c(/C(O)=C2/C(=O)C(=O)N(CCN3CCOCC3)C2c2ccccn2)cnn1-c1ccccc1 (stereo not given) ... 41.7
Cc1ccc2nc(NC(=O)CSCC(=O)OCC(=O)c3ccccc3)sc2c1 ... 39
CCCCCCCOC(=O)C[N+](C)(C)CCOC1CC2CCC1(C)C2(C)C (stereo not given) ... 9.62
O=c1c2ccccc2cnn1CCOc1ccccc1 ... -21.5
Cc1cccc(OC(=O)NCCOC(=O)N(O)c2ccc(Cl)cc2)c1 ... -5.77
O=C(O)c1ccc(N/N=C/c2ccc3c(c2)OCO3)cc1 ... -12.1

# inhibition lookup, item `Cc1nc2c(O)c3c(c(O)c2nc1C)C1C=CC3CC1` 93.2

# inhibition lookup, item C/C(=N\NC(N)=S)C1C2C3CC4C5CC(C42)C1C53 (stereo not given) 30

# inhibition lookup, item `COc1ccc2cc3c(N)nn(C(=O)Cc4c[nH]c5ccccc45)c3nc2c1` 66.2

# inhibition lookup, item `COc1ccc(-c2cc(C(=O)N3CCN(c4ncccn4)CC3)c3ccccc3n2)c(OC)c1` -9.7

# inhibition lookup, item Cc1ccc(-n2nc3c(=O)n(C(C)C(=O)NCCC4=CCCCC4)nc(C)c3c2C)cc1 (stereo not given) 47.1

---

- target under test: Nuclear receptor coactivator 2 (Homo sapiens)
- protocol summary: SRC2 coactivator transcriptional activity inhibitors, confirmation, cell-based, luminescence, HEK293, triplicate (AID 652008);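 further: 0% = DMSO-treated cells and 100% = Gossypol at 36 µM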
- test conditions: HEK293 GAL4-SRC2 luciferase reporter, at 8.9 µM
Calls of active or inactive are those of the source.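 How the source made its calls: active means mean inhibition above 46.5%, the solvent-only control mean plus 3 SD; inactive means the rest.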
Mark one answer only. Choices: TRUE for active, FALSE for inactive

Solved entries (count: 4):
Cc1cccc(NC(=S)NNc2ncc(C(F)(F)F)cc2Cl)c1 ... FALSE
COc1ccccc1N1CCN(C(CNC(=O)c2ccco2)c2cccnc2)CC1 (stereo not given) ... FALSE
O=C1CCCCC1Sc1nnc(-c2ccc3c(c2)OCO3)o1 (stereo not given) ... TRUE
CC(C)c1ccc(/C=C(\c2nc3ccccc3[nH]2)S(=O)(=O)c2ccccc2)cc1 ... TRUE

// outcome(item) with item = `Nc1ccc2c(c1)C(=O)C(=O)c1ccccc1-2` TRUE

// outcome(item) with item = `O=C(Nc1cccc2c1CCCC2)c1cc([N+](=O)[O-])ccc1Cl` TRUE

---

- Test system: transactivating tegument protein VP16 (Human herpesvirus 1), Gal4-VP16 luciferase reporter
- protocol summary: VP16 transactivation inhibitors, counter-screen for SRC3 inhibitor project, cell-based, luminescence, high throughput (AID 588794)
- test conditions: mammalian cells, VP16-driven luciferase reporter luminescence; at 3.6 µM
The source made the active and inactive calls. No stated cut-off is given here; in the data, active means inhibition above about 30%; inactive means the rest.
Mark one answer only. Choices: t (active), f (inactive)

Solved entries (count: 6):
O=C(O)c1ccccc1C(=O)Nc1ccc(Oc2cccc3ccccc23)cc1 ... t
COc1cc(C(=O)Nc2nc(-c3cccs3)cs2)cc(OC)c1OC ... f
CC(=O)CSc1ccc(-c2nc3cc(C)c(C)cc3[nH]2)cn1 ... f
COc1cc2c(c(OC)c1OC)-c1ccc(SC)c(=O)cc1C(NC=O)CC2 (stereo not given) ... f
Cc1cc(C)nc(SCC(=O)Nc2ccnc3ccccc23)n1 ... t
CCCCCCCCCCCCCCCCCCNc1ccn(C2OC(COP(=O)(O)OCC3OC(n4cc(F)c(=O)[nH]c4=O)CC3O)C(O)C2O)c(=O)n1 (stereo not given) ... t

// outcome(item) with item = `CCN(CC)CCC(=O)Nc1cccc2c1C(=O)c1ccccc1C2=O` f

// outcome(item) with item = OCCN(CCO)CC(O)COc1ccc(C23CC4CC(CC(C4)C2)C3)cc1 (stereo not given) f

// outcome(item) with item = `Cc1ccc(OCCN2CCN(c3ncnc4sc(C)c(C)c34)CC2)cc1` t

// outcome(item) with item = `CC(=O)c1c(C)n(-c2ccc(Br)cc2)c2ccc(O)cc12` t
